B1: BCL2L13 (parent)
chain: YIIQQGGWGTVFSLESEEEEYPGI

- Variants of: B1
- method summary: protein stability index of a GFP-peptide fusion (GPS, HEK-293T) (PSI 1-6); higher = more stable;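 also: lentivirally expressed fusions sorted by FACS into six bins by GFP to DsRed ratio, PSI derived from sequencing read proportions per bin multiplied by bin number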
- setup conditions: c terminus: a fixed tail appended

>  <chain sequence>
YIIQQGGWGTVFSLESETEEYPGI

>  <protein stability index>
1.99

$$$$
>  <chain sequence>
YIIQQGGWGTVFSLESEEEEYAGI

>  <protein stability index>
2

$$$$
>  <chain sequence>
YIHQQGGWGTVFSLESEEEEYPGI

>  <protein stability index>
2.71

$$$$
>  <chain sequence>
YIIQQGGWGTVFGLESEEEEYPGI

>  <protein stability index>
1.74

$$$$
>  <chain sequence>
YIIQQGGWDTVFSLESEEEEYPGI

>  <protein stability index>
1.13

$$$$
>  <chain sequence>
YIIQQGGWGTVFSLESNEEEYPGI

>  <protein stability index>
2.31

$$$$
>  <chain sequence>
YIIQQGGWGTVKSLESEEEEYPGI

>  <protein stability index>
2.39

$$$$
>  <chain sequence>
YIIQQGGWGTVFSLESEEEEYPGF

>  <protein stability index>
2.58

$$$$
>  <chain sequence>
YIIQQGGWGTVFSLESEEEERPGI

>  <protein stability index>
1.75

$$$$
>  <chain sequence>
YIIQQGGWGTVFCLESEEEEYPGI

>  <protein stability index>
1.49

$$$$
>  <chain sequence>
YIIQQGGWGTVFSLESEEEHYPGI

>  <protein stability index>
2.46

$$$$
>  <chain sequence>
YIFQQGGWGTVFSLESEEEEYPGI

>  <protein stability index>
2.27

$$$$
>  <chain sequence>
YIIQQGGWGTVFSTESEEEEYPGI

>  <protein stability index>
2.2

$$$$
>  <chain sequence>
YIIQQGGWGTVFFLESEEEEYPGI

>  <protein stability index>
2.46

$$$$
>  <chain sequence>
YIIQQGGWETVFSLESEEEEYPGI

>  <protein stability index>
2.65

$$$$
>  <chain sequence>
YIIQQGGWGTVASLESEEEEYPGI

>  <protein stability index>
2.5

$$$$
>  <chain sequence>
YIIQQGGWGTVFSLESEEEEYPGC

>  <protein stability index>
1.34

$$$$
>  <chain sequence>
YIIQQGGYGTVFSLESEEEEYPGI

>  <protein stability index>
2.84

$$$$
>  <chain sequence>
YIIQQGGWGTHFSLESEEEEYPGI

>  <protein stability index>
2.25

$$$$
>  <chain sequence>
YIIQQGGWGTVFSLESEPEEYPGI

>  <protein stability index>
1.53

$$$$
>  <chain sequence>
YIIQQGGWGTVFSLESEEEEYPMI

>  <protein stability index>
2.57

$$$$
